- Target under test: human melanocortin receptor subtype 3 (hMC3-R) (human), P41968
- Sequence (P41968 whole entry): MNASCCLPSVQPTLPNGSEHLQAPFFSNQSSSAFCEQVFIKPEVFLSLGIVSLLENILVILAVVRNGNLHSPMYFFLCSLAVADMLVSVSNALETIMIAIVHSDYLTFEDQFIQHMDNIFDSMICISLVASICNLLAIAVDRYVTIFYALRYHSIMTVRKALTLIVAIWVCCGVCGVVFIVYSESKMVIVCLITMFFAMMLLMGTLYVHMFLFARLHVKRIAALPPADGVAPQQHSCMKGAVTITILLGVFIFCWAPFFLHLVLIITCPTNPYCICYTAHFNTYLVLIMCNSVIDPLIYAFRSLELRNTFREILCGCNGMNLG
- Test name: [125I]-NDP-α-MSH competition, membranes
pKi: −log10 of the molar value. Bridge positions count the residues as written; N and C are the ends. Square brackets hold non-standard residues; d marks the D form. Ends that are not written are not given here. 1Nal = N[C@@H](Cc1cccc2ccccc12)C(=O)O; d2Nal = N[C@H](Cc1ccc2ccccc2c1)C(=O)O

Binder: Ac-FRC[dA]H[dF]RWC-NH2 (disulfide 3-9; SMILES CC(=O)N[C@@H](Cc1ccccc1)C(=O)N[C@@H](CCCNC(=N)N)C(=O)N[C@H]1CSSC[C@@H](C(N)=O)NC(=O)[C@H](Cc2c[nH]c3ccccc23)NC(=O)[C@H](CCCNC(=N)N)NC(=O)[C@@H](Cc2ccccc2)NC(=O)[C@H](Cc2c[nH]cn2)NC(=O)[C@@H](C)NC1=O) [Ac-Phe-Arg-c(Cys-D-Ala-His-D-Phe-Arg-Trp-Cys)-NH2]
pKi: 7.83
//
Binder: RGC[dA]H[dF]RWC-NH2 (disulfide 3-9; also: hydantoin ring: C(O) bridging Arg-Gly) [Hydantoin(C(O)-(Arg-Gly))-c(Cys-D-Ala-His-D-Phe-Arg-Trp-Cys)-NH2]
pKi: 7.38
//
Binder: Ac-CEH[d2Nal]R[1Nal]ACPPKD-NH2 (disulfide 1-8; SMILES CC(=O)N[C@H]1CSSC[C@@H](C(=O)N2CCC[C@H]2C(=O)N2CCC[C@H]2C(=O)N[C@@H](CCCCN)C(=O)N[C@@H](CC(=O)O)C(N)=O)NC(=O)[C@H](C)NC(=O)[C@H](Cc2cccc3ccccc23)NC(=O)[C@H](CCCNC(=N)N)NC(=O)[C@@H](Cc2ccc3ccccc3c2)NC(=O)[C@H](Cc2c[nH]cn2)NC(=O)[C@H](CCC(=O)O)NC1=O) [Ac-c(Cys-Glu-His-D-2-Nal-Arg-1-Nal-Ala-Cys)-Pro-Pro-Lys-Asp-NH2]
pKi: 7.75
//
Binder: LGC[dA]H[dF]RWC-NH2 (disulfide 3-9; also: hydantoin ring from C(O) with Leu1-Gly2) [Hydantoin(C(O)-(Leu-Gly))-c(Cys-D-Ala-His-D-Phe-Arg-Trp-Cys)-NH2]
pKi: 6.48
//
Binder: Ac-WRC[dA]H[dF]RWC-NH2 (disulfide 3-9; SMILES CC(=O)N[C@@H](Cc1c[nH]c2ccccc12)C(=O)N[C@@H](CCCNC(=N)N)C(=O)N[C@H]1CSSC[C@@H](C(N)=O)NC(=O)[C@H](Cc2c[nH]c3ccccc23)NC(=O)[C@H](CCCNC(=N)N)NC(=O)[C@@H](Cc2ccccc2)NC(=O)[C@H](Cc2c[nH]cn2)NC(=O)[C@@H](C)NC1=O) [Ac-Trp-Arg-c(Cys-D-Ala-His-D-Phe-Arg-Trp-Cys)-NH2]
pKi: 7.38
//
Binder: AGC[dA]H[dF]RWC-NH2 (disulfide 3-9; also: hydantoin ring: C(O) bridging Ala-Gly) [Hydantoin(C(O)-(Ala-Gly))-c(Cys-D-Ala-His-D-Phe-Arg-Trp-Cys)-NH2]
pKi: 7.42
